- Assayed System: endogenous NAMPT (Homo sapiens, UniProt P43490)
- Construct: stimulate the endogenous NAMPT in a native cellular environment; endogenous in cells; host or cells: SH-SY5Y neuroblastoma cells
- Assay Overview: Cellular NAD+ modulation assay in neuroblastoma SH-SY5Y cells
- Format: cell-based
- Run Parameters: Table B; SH-SY5Y cells, cellular NAD levels, doxorubicin, 40 hours; read-out: EC50
- Description: The compounds described herein were also assayed for their ability to stimulate the endogenous NAMPT in a native cellular environment in the cellular NAD+ modulation assay, which measures the ability of the compound to modulate cellular NAD levels. Increased levels of NAD are expected by compounds that permeate the cells and activate the catalytic activity of the endogenous NAMPT. […]
pEC50: −log10 of the molar value.
Attribute Measured: pEC50

Examples from the recorded data:
Compound | Assayed System | Attribute Measured | Observed Value
COc1ccc(CNC(=O)NC2CC3(C2)CC(C(=O)N2CCCc4cc(C)ccc42)C3)cc1 (centres unmarked) | endogenous NAMPT (Homo sapiens, UniProt P43490) | pEC50 | 4.90
COc1ccc(CNC(=O)NC2CC3(CC(Cc4ccncc4)C3)C2)cc1 (centres unmarked) | endogenous NAMPT (Homo sapiens, UniProt P43490) | pEC50 | 5.09
COc1ccc(CNC(=O)NCCCCC2CCN(C(=O)c3ccccc3)CC2)cc1 | endogenous NAMPT (Homo sapiens, UniProt P43490) | pEC50 | 4.86
COc1ccc(CNC(=O)NCCCCC2CCN(C(=O)c3ccccc3C)CC2)cc1 | endogenous NAMPT (Homo sapiens, UniProt P43490) | pEC50 | 6.52
COc1ccc(CNC(=O)NC2CC3(C2)CC(C(=O)N2CCc4ccccc42)C3)cc1 (centres unmarked) | endogenous NAMPT (Homo sapiens, UniProt P43490) | pEC50 | 6.30
COc1ccc(CNC(=O)NC2CC3(C2)CN(C(=O)c2ccnc(C)c2)C3)cc1 | endogenous NAMPT (Homo sapiens, UniProt P43490) | pEC50 | 5.20

P = Cc1ncccc1C(=O)NC1CC2(CC(NC(=O)NCc3ccc(Cl)cc3)C2)C1 (centres unmarked)
Q = O=C(NCCCCC(=O)N1CCCc2ccccc21)NCc1ccc(Cl)cc1
R = COc1ccc(CNC(=O)NC2CC3(C2)CC(C(=O)N2CCCc4cnccc42)C3)cc1 (centres unmarked)
S = O=C(NCc1ccc(Cl)cc1)NC1CC2(CC(Cc3ccncc3)C2)C1 (centres unmarked)
T = NC(=O)c1ccc(CNC(=O)NCCCCC2CCN(C(=O)c3ccccc3)CC2)cc1
q: Put the items in sequence by pEC50, from largest down. Return the labels ranked in the requested order, please.
a: S, Q, R, T, P
(S: 7.00, Q: 6.52, R: 6.10, T: 5.89, P: 5.00)

P = COc1ccc(CNC(=O)NC2CC3(CC(Cn4ncc5ccccc54)C3)C2)cc1 (centres unmarked)
Q = COc1ccc(CNC(=O)NC2CC3(C2)CC(C(=O)N2Cc4ccccc4C2)C3)cc1 (centres unmarked)
R = COc1ccc(CNC(=O)N[C@H]2C[C@]3(C2)C[C@H](C(=O)N2CCCc4ccccc42)C3)cc1 (some centres unmarked)
q: // sort entries: pEC50, high to low Respond with the label ranking, as requested.
a: R, Q, P
(R: 6.70, Q: 6.10, P: 4.90)

I = COc1ccc(CNC(=O)NC2CC3(C2)CN(C(=O)c2ccc(C)nc2)C3)cc1
II = [2H]C([2H])(CCCC1CCN(C(=O)c2ccccc2)CC1)NC(=O)NCc1cnco1
q: Of the two listed items, which has the higher pEC50? First: I Second: II Field: selected label. Fill in the label of the entry you choose.
a: II
(II: 6.52, I: 5.00)

###

- Assayed System: human NAMPT (Homo sapiens)
- Assay Overview: Human recombinant enzyme assay (NMN fluorescence biochemical assay, activation of NAMPT)
- Run Parameters: Table A; human recombinant NAMPT, NMN formation, 60 min
Attribute Measured: AC1.4 Human (µM)

Below are worked cases with known answers.
Compound | AC1.4 Human / µM
CN(C(=O)CCCCCNC(=O)NCc1cnco1)c1ccccc1F | 0.3
COC(=O)N1CCN(C(=O)C2CC3(CC(NC(=O)NCc4ccc(OC)cc4)C3)C2)CC1 (centres unmarked) | 0.5
Cc1ccccc1NC(=O)CCCCCNC(=O)NCc1ccc(Cl)cc1 | 0.6
CC(C)(O)CN1CCN(C(=O)C2CC3(CC(NC(=O)NCc4ccc(Cl)cc4)C3)C2)CC1 (centres unmarked) | 0.7
CC1(C)CCC(NC(=O)NCc2ccc(C(N)=O)cc2)CC1 | 17.5

a = O=C(NCc1ccc(Cl)cc1)N[C@H]1C[C@]2(CCN(c3ncccn3)C2)C1
b = COc1ccc(CNC(=O)NC2CC3(C2)CC(C(=O)NCC(C)(C)c2ccccc2F)C3)cc1 (centres unmarked)
q: Which value of AC1.4 Human is greater, the one for a or the one for b ? Mark your answer with the label of the selected entry.
a: a

1 = O=C(NCc1ccc(Cl)cc1)NC1CC2(CC(Cn3cncn3)C2)C1 (centres unmarked)
2 = CN(C(=O)CCCCCNC(=O)NCc1ccc(Cl)cc1)c1ccccn1
3 = COc1ccc(CNC(=O)NC2CC3(C2)CC(C(=O)N(C)c2ccccc2)C3)cc1 (centres unmarked)
q: Reorder: AC1.4 Human, max to min. Ranked list of labels, please, in the requested order.
a: 1, 2, 3

a = Cc1ccc(C(=O)N2CC3(CC(NC(=O)NCc4cn[nH]c4)C3)C2)cc1
b = CC(C)(C)OC(=O)NC1CC2(CC(NC(=O)NCc3cnco3)C2)C1 (centres unmarked)
q: // pick larger AC1.4 Human from pair: a vs b Respond using the label that marks the chosen record.
a: b
(b: 11.5 µM, a: 2.0 µM)

###

- Assayed System: human NAMPT (Homo sapiens)
- Assay Overview: Human recombinant enzyme assay (NMN fluorescence biochemical assay, activation of NAMPT)
- Run Parameters: Table A; human recombinant NAMPT, NMN formation, 60 min
Attribute Measured: AC1.4 Human (µM)

Compound | AC1.4 Human, µM
COc1ccc(CNC(=O)NC2CC3(C2)CN(C(=O)c2ccncc2)C3)cc1 [Compound 139] | 16.4
O=C(NCCCCC1CCN(c2nn[nH]n2)CC1)NCc1ccc(Cl)cc1 [Compound 318] | 3.9
COc1ccc(CNC(=O)NC2CC3(C2)CN(S(=O)(=O)Cc2ccccc2Cl)C3)cc1 [Compound 117] | 3.2
Cc1cc(C(=O)NC2CC3(CC(NC(=O)NCc4ccc(Cl)cc4)C3)C2)ccn1 (centres unmarked) [Compound 186] | 16.0
Cc1cccc(N2CC[C@]3(C2)C[C@H](NC(=O)NCc2ccc(Cl)cc2)C3)n1 [Compound 199] | 10.6
COc1ccc(CNC(=O)NC2CC3(C2)CN(C(=O)C2CCCN(C(=O)OC(C)(C)C)C2)C3)cc1 (centres unmarked) [Compound 136] | 9.8
COc1ccc(CNC(=O)NC2CC3(CC(Cc4ccc(C)nc4)C3)C2)cc1 (centres unmarked) [Compound 337] | 1.0
O=C(NCc1ccc(Cl)cc1)NC1CC2(C1)CN(C(=O)c1cccc(-n3cccc3)c1)C2 [Compound 219] | 2.9

a = CN(C)c1ccccc1C(=O)NC1CC2(CC(NC(=O)NCc3ccc(Cl)cc3)C2)C1 (centres unmarked) [Compound 209]
b = COc1ccc(CNC(=O)NC2CC3(CC(Cc4cccc(C)c4)C3)C2)cc1 (centres unmarked) [Compound 335]
q: Could you point out whether the larger AC1.4 Human belongs to a or to b ? Kindly state the label of the option you pick.
a: a

###

- Assayed System: human NAMPT (Homo sapiens, UniProt P43490)
- Sequence (P43490 whole entry): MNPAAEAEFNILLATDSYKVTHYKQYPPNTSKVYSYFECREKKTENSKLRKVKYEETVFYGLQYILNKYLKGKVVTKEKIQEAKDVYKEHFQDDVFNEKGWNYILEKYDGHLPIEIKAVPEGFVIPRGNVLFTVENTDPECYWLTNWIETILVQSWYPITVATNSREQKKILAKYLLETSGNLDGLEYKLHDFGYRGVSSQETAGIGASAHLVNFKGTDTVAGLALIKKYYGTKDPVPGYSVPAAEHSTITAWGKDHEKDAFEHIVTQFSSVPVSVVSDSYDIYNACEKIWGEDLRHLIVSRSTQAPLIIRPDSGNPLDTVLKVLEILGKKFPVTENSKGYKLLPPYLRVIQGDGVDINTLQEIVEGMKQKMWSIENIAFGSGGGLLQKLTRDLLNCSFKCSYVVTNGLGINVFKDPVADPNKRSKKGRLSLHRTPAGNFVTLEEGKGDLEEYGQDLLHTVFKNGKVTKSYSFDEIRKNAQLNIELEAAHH
- Assay Overview: Human recombinant enzyme assay (NMN fluorescence biochemical assay, activation of NAMPT)
- Run Parameters: Table A; human recombinant NAMPT, NMN formation, 60 min
- Description: Compounds described herein were assayed for their ability to stimulate the synthesis of nicotinamide mononucleotide (NMN) by the enzyme NAMPT. […] Dose responses were measured using an assay to detect the formation of nicotinamide mono-nucleotide. […] The plates were read for fluorescence (Excitation/Emission=355 nm/460 nm) using an EnVision plate reader after 40 mins of incubation at ambient temperature.
Attribute Measured: AC1.4 Human (µM)

Compound | AC1.4 Human (µM)
CC(C)(C(=O)N1CC2(CC(NC(=O)NCc3ccc(Cl)cc3)C2)C1)c1ccccc1 | 1.1

P = COc1ccc(CNC(=O)NC2CC3(C2)CC(C(=O)NC2CCCc4ccc(F)cc42)C3)cc1 (stereo in doubt) [Compound 99]
Q = O=C(Cc1cccnc1)NCCCCCNC(=O)NCc1ccc(Cl)cc1
q: Short answer wanted: higher AC1.4 Human, P or Q ? Write down the label of the entry you select.
a: Q

###

- Assayed System: endogenous NAMPT (Homo sapiens)
- Construct: stimulate the endogenous NAMPT in a native cellular environment; endogenous in cells; host or cells: SH-SY5Y neuroblastoma cells
- Assay Overview: Cellular NAD+ modulation assay in neuroblastoma SH-SY5Y cells
- Assay type: cell-based
- Run Parameters: Table B; SH-SY5Y cells, cellular NAD levels, doxorubicin, 40 hours
Attribute Measured: AC0.3 (µM)

Compound | Observed Value
COc1ccc(CNC(=O)NC2CC3(C2)CN(C(=O)c2ccc(C)cc2)C3)cc1 | 1.1
COc1ccc(CNC(=O)NC2CC3(C2)CC(C(=O)N(C)C2CCOC2)C3)cc1 (stereo in doubt) | 5.8
O=C(NCCCCC1CCN(C(=O)c2ccccc2)CC1)NCc1ccc(Cl)cc1 | 0.1
CN(C(=O)CCCCCNC(=O)NCc1ccc(Cl)cc1)c1ccccc1 | 0.1
CN(C(=O)CCCCCNC(=O)NCc1cnco1)c1ccccc1F | 0.3
COc1ccc(CNC(=O)NC2CC3(C2)CN(C(=O)c2ccnc(C)c2)C3)cc1 | 8.2
COc1ccc(CNC(=O)NC2CC3(C2)CC(C(=O)N2CCc4ccccc42)C3)cc1 (centres unmarked) | 0.3
COc1ccc(CNC(=O)NC2CC3(CC(Cn4ncc5ccccc54)C3)C2)cc1 (centres unmarked) | 8.0
O=C(NCCCCC(=O)N1CCCc2ccccc21)NCc1ccc(Cl)cc1 | 0.3
CC(C)(O)CN1CCN(C(=O)C2CC3(CC(NC(=O)NCc4ccc(Cl)cc4)C3)C2)CC1 (centres unmarked) | 0.5

A = COc1ccc(CNC(=O)NCCCCC2CCN(C(=O)c3ccccc3C)CC2)cc1
B = Cc1ccc(C(=O)N2CC3(CC(NC(=O)NCc4ccncc4)C3)C2)cc1
C = O=C(NCCCCC1CCN(C(=O)c2ccccc2)CC1)NCc1ccc(CO)cc1
D = Cc1cccc(N2CC[C@]3(C2)C[C@H](NC(=O)NCc2ccc(Cl)cc2)C3)n1
E = COc1ccc(CNC(=O)NC2CC3(C2)CC(C(=O)N2CCCc4cnccc42)C3)cc1 (centres unmarked)
q: # desc sort on AC0.3 across 5 compounds Write the labels, ordered according to the request.
a: B, D, E, C, A
